All figures here come from ChEMBL document CHEMBL2321733.

Biological target: Phosphatidylinositol 4,5-bisphosphate 3-kinase catalytic subunit delta isoform (Homo sapiens)
Sequence (O00329 whole entry): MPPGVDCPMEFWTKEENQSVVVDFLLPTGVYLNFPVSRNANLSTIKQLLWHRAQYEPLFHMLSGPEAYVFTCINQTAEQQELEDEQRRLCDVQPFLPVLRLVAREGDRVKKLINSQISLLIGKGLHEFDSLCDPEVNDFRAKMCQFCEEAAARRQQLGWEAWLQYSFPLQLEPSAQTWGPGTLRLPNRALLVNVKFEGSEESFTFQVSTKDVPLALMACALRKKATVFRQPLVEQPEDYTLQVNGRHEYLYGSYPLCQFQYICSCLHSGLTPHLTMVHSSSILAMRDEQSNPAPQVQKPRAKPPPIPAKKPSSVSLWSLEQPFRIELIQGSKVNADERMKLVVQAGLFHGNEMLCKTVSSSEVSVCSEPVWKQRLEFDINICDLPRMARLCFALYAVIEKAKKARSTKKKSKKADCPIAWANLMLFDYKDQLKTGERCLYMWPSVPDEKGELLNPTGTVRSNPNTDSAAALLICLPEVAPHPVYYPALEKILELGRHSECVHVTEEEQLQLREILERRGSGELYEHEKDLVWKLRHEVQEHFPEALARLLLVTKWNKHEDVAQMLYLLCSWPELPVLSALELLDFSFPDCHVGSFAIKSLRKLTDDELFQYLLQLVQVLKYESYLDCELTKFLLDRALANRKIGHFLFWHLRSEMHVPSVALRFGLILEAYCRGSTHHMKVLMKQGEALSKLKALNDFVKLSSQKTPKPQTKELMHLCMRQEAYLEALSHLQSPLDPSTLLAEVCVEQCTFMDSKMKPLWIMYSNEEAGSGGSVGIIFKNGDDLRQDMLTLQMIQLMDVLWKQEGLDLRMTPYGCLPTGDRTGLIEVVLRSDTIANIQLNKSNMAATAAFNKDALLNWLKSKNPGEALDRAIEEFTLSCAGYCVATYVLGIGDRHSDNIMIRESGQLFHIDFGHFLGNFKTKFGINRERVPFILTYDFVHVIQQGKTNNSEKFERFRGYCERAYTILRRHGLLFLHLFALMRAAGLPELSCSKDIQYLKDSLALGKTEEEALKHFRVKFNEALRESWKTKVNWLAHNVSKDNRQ
Experiment: Inhibition of PI3Kdelta (unknown origin)
pIC50: −log10 of the molar value.
PARAMETER: pIC50

MOLECULE: Cc1nn2c(O)cc(N3CCOCC3)nc2c1Cc1cccc(C(F)(F)F)c1C
PARAMETER: pIC50
OBSERVED RESULT: 7.60

(P) Cc1nn2c(O)cc(N3CCOC(C)C3)nc2c1Cc1cccc(C(F)(F)F)c1C (stereo not given)
(Q) Cc1nn2c(O)cc(N3CCOCC3=O)nc2c1Cc1cccc(C(F)(F)F)c1C
(R) Nc1nn2c(O)cc(C3CCOCC3)nc2c1Cc1cccc(Cl)c1Cl
(S) COc1nn2c(O)cc(-c3ccncc3)nc2c1Cc1cccc(Cl)c1Cl
Exercise: Please list these in order of increasing pIC50. Thank you! List the labels, following the order given in the request.
Solution: R, Q, S, P
(R: 6.20, Q: 6.80, S: 7.60, P: 7.80)
